# Test system: ATP;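 note: ATP exposure 15 min at 22 °C before imaging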
# Experiment description: switch fluorescence ratio, 500 uM ATP over buffer (Cy3 cluster intensity, sum of 5 cycles each) (fold (ratio)); higher = stronger signal-on switching upon ATP binding; sequences stand for … in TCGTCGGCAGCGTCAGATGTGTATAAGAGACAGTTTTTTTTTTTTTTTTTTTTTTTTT…TC
# Particulars: aptamer strand: ATP DNA aptamer (quencher-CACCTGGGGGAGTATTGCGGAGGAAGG + anchor), 100 nM annealed; ATP concentration: 500 uM
Consider the following sequences; for each one, report its switch fluorescence ratio.
Numbers only.

GAGGAAGCGA
1.18

Below is a list of sequences. For each, state its recorded switch fluorescence ratio.
1. CTGGCGTATG
2. GATATACAGC
3. TGAGATTCCT
4. CAGTGCGCTA
5. TCGGACTCGG
6. AACATTTTTG
7. TATTTCATTG
8. AGGAATCGTT

Outgoing:
0.997
1.02
1.09
1.15
0.963
0.998
1.02
0.997

Provide the reported switch fluorescence ratio of each entry below, same order.
1. GCGGAGGGGG
2. TAGTTTCGGC
3. ACTAAGGGGT
4. AGCTTTATTT
5. GCGCCCTGTG
6. ATTGGGGGGT

Outgoing:
1. 1
2. 0.958
3. 1.05
4. 1.06
5. 1.12
6. 0.988

* * *

Hi there, I'd appreciate the recorded switch fluorescence ratio for every entry that follows.
# Test system: ATP;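 note: ATP exposure 15 min at 22 °C before imaging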
# Experiment description: switch fluorescence ratio, 500 uM ATP over buffer (Cy3 cluster intensity, sum of 5 cycles each) (fold (ratio)); higher = stronger signal-on switching upon ATP binding; sequences stand for … in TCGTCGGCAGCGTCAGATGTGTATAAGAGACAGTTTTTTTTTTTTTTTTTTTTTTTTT…TC
# Particulars: aptamer strand: ATP DNA aptamer (quencher-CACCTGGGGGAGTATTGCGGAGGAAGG + anchor), 100 nM annealed; ATP concentration: 500 uM
Give bare numbers.

ACTAAAGGGC
1.07
ATCGCTGGGT
1.01

Hi! Can you tell me switch fluorescence ratio for each of these sequences?
1. TAAGGAGTGC
2. TTATTCGGCT

Outgoing:
1: 0.955; 2: 1.08

Hi there! I need switch fluorescence ratio for each item below, if you can.
1. ATGGCAGGCG
2. TTCGATTTTT
3. ACAGGGGTCT
4. TGTGGGTTTT
5. GCTCATTATT
6. TTACAAAGGA

Outgoing:
0.995
0.981
1.06
1.02
1.01
0.999

Working through the 7 sequences below one at a time, give switch fluorescence ratio for each.
1. TTCGATTGTG
2. GGGGTTGGTA
3. TGTGGTTTTT
4. ATGGTGTCAG
5. TCTAATCCGG
6. ATTGGGTTTG
7. TGTTTCTACG

Outgoing:
1: 0.987; 2: 1.01; 3: 1.01; 4: 0.994; 5: 1.01; 6: 1.01; 7: 1

Hi! Can you tell me switch fluorescence ratio for each of these sequences?
1. AATCGGTACT
2. TTTTCAAACC
3. ACTATTTTTC
4. TGGAACTATA

Outgoing:
[1.01, 0.995, 1.02, 1.02]

Would you mind giving switch fluorescence ratio for every sequence in the list below?
1. TAGGGTAGCG
2. GTTGGAATGA
3. GATCGTACAG
4. GGCTGGGCTG
5. GGGAATTTGC

Outgoing:
0.99
1
1.04
0.991
1

Your task in this section: give switch fluorescence ratio for each listed record.
1. TGAGTCTAGG
2. TAGGGGTGCA
3. ATCATCGCTA
4. CGCTGTTTTT
5. ATTACTGGGG
6. AGTTGAATGT
7. TCGGCCATCG
8. TAGATGTCCG

Outgoing:
1: 0.998; 2: 1.08; 3: 1.09; 4: 1.02; 5: 0.99; 6: 0.965; 7: 1; 8: 0.922

# batch: return switch fluorescence ratio for each of the 8 sequences below
1. TTCAATCCCG
2. GATAAGGGTG
3. TGGTTGGGAT
4. TTTATCTGAT
5. CAGGCGCAGG
6. TATAGGGGGC
7. CACTAGTCTG
8. CAGGGGCTTA

Outgoing:
0.991
1.07
1
0.965
1.06
1.03
1.01
1

Incoming: Recall and state the measured switch fluorescence ratio for `GCGGGGAGCG` .
Outgoing: 1

* * *

# Test system: ATP;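 note: ATP exposure 15 min at 22 °C before imaging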
# Experiment description: switch fluorescence ratio, 500 uM ATP over buffer (Cy3 cluster intensity, sum of 5 cycles each) (fold (ratio)); higher = stronger signal-on switching upon ATP binding; sequences stand for … in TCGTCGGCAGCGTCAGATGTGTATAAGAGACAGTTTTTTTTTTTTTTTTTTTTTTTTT…TC
# Particulars: aptamer strand: ATP DNA aptamer (quencher-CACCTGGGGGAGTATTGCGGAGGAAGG + anchor), 100 nM annealed; ATP concentration: 500 uM
Reported metric: switch fluorescence ratio
Numbers only.

These recorded examples may help you get a feel for the data.
ACGTAACCTA
1.28
CCGAAGTCCT
1.25
CATGGATAGC
0.963
TTACCCTTAG
1.06

Go through the list and state switch fluorescence ratio for each entry.
1. TTATTCTCGG
2. AGGAAAGAAT
3. CCTGGGTAGC
4. ACATGGGGAA
5. GAGTGGGTTT
6. AGCAGCTAAG
7. GACGGTTCAG
8. CTGTGAGGGC

Outgoing:
1. 1.04
2. 0.968
3. 1.1
4. 0.994
5. 0.999
6. 0.995
7. 1.03
8. 0.991

* * *

# Test system: ATP;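 note: ATP exposure 15 min at 22 °C before imaging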
# Experiment description: switch fluorescence ratio, 500 uM ATP over buffer (Cy3 cluster intensity, sum of 5 cycles each) (fold (ratio)); higher = stronger signal-on switching upon ATP binding; sequences stand for … in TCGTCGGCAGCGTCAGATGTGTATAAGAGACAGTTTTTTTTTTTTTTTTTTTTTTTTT…TC
# Particulars: aptamer strand: ATP DNA aptamer (quencher-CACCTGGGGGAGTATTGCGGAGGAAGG + anchor), 100 nM annealed; ATP concentration: 500 uM
Reported metric: switch fluorescence ratio
Give bare numbers.

GTTGAAAAGG
0.971

Report switch fluorescence ratio for each item below.
1. TAACAGTAGG
2. AATAGTTGGG
3. CTCGGAATGG
4. GTTTAGAAAG
5. CTTAACGGGA
6. CGAGGGGAGT

Outgoing:
1.05
1.03
1.08
1.01
0.99
1.01

* * *

# System: ATP;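 note: ATP exposure 15 min at 22 °C before imaging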
# Experiment description: switch fluorescence ratio, 500 uM ATP over buffer (Cy3 cluster intensity, sum of 5 cycles each) (fold (ratio)); higher = stronger signal-on switching upon ATP binding; sequences stand for … in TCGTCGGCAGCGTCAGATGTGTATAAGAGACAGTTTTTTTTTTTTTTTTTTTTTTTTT…TC
# Particulars: aptamer strand: ATP DNA aptamer (quencher-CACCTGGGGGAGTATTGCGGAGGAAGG + anchor), 100 nM annealed; ATP concentration: 500 uM
Reported metric: switch fluorescence ratio
One number for each entry.

Study these solved cases before continuing.
CTCAATCTTG
0.971
ACTTTGCGTT
0.992
ACTTCTAATT
1.01

Quick one: give me switch fluorescence ratio for each item below, same order please.
1. ACCGGGCCGA
2. ACCCTTTTTG
3. GGATTGTTTA
4. TTTTTAAAAG
5. GGTGTATGAA
6. TGGAGAATTT
7. CGTACAGCAG

Outgoing:
[1.04, 0.986, 1, 0.988, 0.994, 1.02, 1.01]

* * *

# Test system: ATP;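 note: ATP exposure 15 min at 22 °C before imaging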
# Experiment description: switch fluorescence ratio, 500 uM ATP over buffer (Cy3 cluster intensity, sum of 5 cycles each) (fold (ratio)); higher = stronger signal-on switching upon ATP binding; sequences stand for … in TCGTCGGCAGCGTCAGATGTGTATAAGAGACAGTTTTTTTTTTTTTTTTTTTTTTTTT…TC
# Particulars: aptamer strand: ATP DNA aptamer (quencher-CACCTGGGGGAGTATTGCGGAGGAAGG + anchor), 100 nM annealed; ATP concentration: 500 uM
Reported metric: switch fluorescence ratio
One number for each entry.

Hi, could you look up switch fluorescence ratio for each item in my list?
1. GCTGGACTCG
2. TATGCGCCGT
3. TCTCTTTAAT
4. TCGAAAATAT
5. ACGACAGCAG

Outgoing:
1.05
0.984
0.997
1.5
1.39

Quick batch: switch fluorescence ratio for everything below.
1. GGGAATTACT
2. TGTCGGTCGG

Outgoing:
[1.87, 0.984]

* * *

# System: ATP;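 note: ATP exposure 15 min at 22 °C before imaging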
# Experiment description: switch fluorescence ratio, 500 uM ATP over buffer (Cy3 cluster intensity, sum of 5 cycles each) (fold (ratio)); higher = stronger signal-on switching upon ATP binding; sequences stand for … in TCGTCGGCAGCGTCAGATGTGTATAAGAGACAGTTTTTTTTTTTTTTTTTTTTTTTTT…TC
# Particulars: aptamer strand: ATP DNA aptamer (quencher-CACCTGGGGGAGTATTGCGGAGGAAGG + anchor), 100 nM annealed; ATP concentration: 500 uM
Exercise: state measured switch fluorescence ratio for each of the sequences provided.
One number for each entry.

Recorded results for 3 sequences are shown here.
CTTTGAATTG
0.987
TACTCAGGTT
2.25
TAAGCCCACG
1.09

Provide the reported switch fluorescence ratio of each entry below, same order.
1. GAGGCAAAG
2. ATTGGTGGAG
3. AGTGAGCTTG

Outgoing:
2.87
1.01
0.982

Batch request: switch fluorescence ratio per item, same order as input.
1. GAGGGGGGAG
2. CCAGGTGTCT
3. ATCAAGTCTT

Outgoing:
1. 0.986
2. 2.16
3. 0.99
